# method: cells
# Format: functional, cell-based
Calls of active or inactive are those of the source.
measuredProperty: EC50

These solved cases illustrate the format of a correct answer.
INSERT INTO measurements (structuresmilesstring, result) VALUES
  ('O=C(NCCc1ccccc1)c1cc(-c2ccco2)on1', '339 µM (active)'),
  ('C=C(C)Cn1c(CCNC(=O)C(C)C)nc2ccccc21', '> 350 µM (not active)'),
  ('CCCCc1c(C)nc(N)nc1O', '> 350 µM (not active)'),
  ('COc1cccc(/C=N\NC(=O)c2ccc(Cn3cc(Br)c([N+](=O)[O-])n3)o2)c1O', '28.6 µM (active)');

GET /values?readout=EC50&item= `O=C(/C=C/c1ccco1)Oc1cc(Br)cc(/C=N/NC(=O)c2ccccc2O)c1` 15.2 µM (active)

###

# experimentalSystem: Cytochrome P450 3A4 (Homo sapiens, UniProt P08684);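 also: CYP3A4 tested as one member of a cytochrome P450 panel screen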
# Sequence (P08684 whole entry): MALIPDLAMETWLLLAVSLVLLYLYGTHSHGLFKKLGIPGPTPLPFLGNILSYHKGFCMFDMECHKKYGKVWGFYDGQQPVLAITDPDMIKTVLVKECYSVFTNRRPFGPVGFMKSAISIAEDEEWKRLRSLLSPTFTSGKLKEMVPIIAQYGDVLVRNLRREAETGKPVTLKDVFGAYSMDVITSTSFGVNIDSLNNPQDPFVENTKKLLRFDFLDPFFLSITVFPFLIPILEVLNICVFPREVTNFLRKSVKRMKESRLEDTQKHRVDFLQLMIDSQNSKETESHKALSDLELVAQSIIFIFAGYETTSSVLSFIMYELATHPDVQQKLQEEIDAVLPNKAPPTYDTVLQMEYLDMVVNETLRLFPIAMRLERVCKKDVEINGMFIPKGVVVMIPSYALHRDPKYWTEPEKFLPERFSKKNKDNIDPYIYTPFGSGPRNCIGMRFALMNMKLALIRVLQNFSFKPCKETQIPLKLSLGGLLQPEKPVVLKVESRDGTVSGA
measuredProperty: AC50

These solved cases illustrate the format of a correct answer.
INSERT INTO measurements (compound, experimentalsystem, result) VALUES
  ('Cc1cc(C)n2nc(SCN3C(=O)c4ccccc4C3=O)nc2n1', 'Cytochrome P450 3A4 (Homo sapiens, UniProt P08684)', '6.31 µM (inconclusive)'),
  ('CCCC[C@@H]1C[C@H]1C(NC(=O)c1cccs1)c1ccc(-c2ccccc2)cc1 (stereo partly specified)', 'Cytochrome P450 3A4 (Homo sapiens, UniProt P08684)', '6.31 µM (inconclusive)'),
  ('COc1ccc(-n2c(S)nnc2-c2cnccn2)cc1', 'Cytochrome P450 3A4 (Homo sapiens, UniProt P08684)', '14.1 µM (inconclusive)');

API: the following record is the query input.
Provide the documented AC50 with Cytochrome P450 3A4 (Homo sapiens, UniProt P08684) as the system for `COc1cc(OC)nc(Oc2ccccc2C(=O)Oc2cccc(C)c2)n1` 17.8 µM (inconclusive)

###

# experimentalSystem: SUMO-activating enzyme (Homo sapiens, UniProt Q9UBT2)
# Sequence (Q9UBE0 whole entry): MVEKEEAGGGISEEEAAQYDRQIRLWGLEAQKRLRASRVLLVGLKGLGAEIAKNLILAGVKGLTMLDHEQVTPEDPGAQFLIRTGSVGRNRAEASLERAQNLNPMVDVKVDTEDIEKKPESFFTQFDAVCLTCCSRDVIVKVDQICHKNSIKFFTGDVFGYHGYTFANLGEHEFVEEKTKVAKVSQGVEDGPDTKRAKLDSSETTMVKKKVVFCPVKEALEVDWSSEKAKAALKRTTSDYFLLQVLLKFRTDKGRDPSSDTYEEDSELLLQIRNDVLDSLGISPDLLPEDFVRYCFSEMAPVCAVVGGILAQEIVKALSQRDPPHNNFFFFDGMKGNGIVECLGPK
# Sequence (Q9UBT2 whole entry): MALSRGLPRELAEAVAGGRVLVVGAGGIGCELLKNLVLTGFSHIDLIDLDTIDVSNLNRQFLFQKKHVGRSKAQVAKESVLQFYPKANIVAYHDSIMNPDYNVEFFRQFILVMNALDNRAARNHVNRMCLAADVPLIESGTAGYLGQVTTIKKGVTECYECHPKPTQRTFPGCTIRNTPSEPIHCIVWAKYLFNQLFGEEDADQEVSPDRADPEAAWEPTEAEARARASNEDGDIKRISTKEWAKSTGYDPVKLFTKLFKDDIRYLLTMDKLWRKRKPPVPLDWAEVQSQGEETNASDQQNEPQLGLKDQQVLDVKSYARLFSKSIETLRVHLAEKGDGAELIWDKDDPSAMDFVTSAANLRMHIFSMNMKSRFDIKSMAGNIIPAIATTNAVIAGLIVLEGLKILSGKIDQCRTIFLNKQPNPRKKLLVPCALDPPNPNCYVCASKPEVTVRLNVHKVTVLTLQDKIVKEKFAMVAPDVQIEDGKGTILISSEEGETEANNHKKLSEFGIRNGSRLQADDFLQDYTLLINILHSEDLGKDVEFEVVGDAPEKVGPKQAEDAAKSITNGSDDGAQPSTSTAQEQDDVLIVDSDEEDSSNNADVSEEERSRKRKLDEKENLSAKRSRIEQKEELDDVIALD
# method: SUMOylation inhibitor hit validation, confirmation, SUMOylation inhibitor project, biochemical, AlphaScreen (AID 2018)
# Format: functional
Activity calls are given as the source filed them.
measuredProperty: IC50

These solved cases illustrate the format of a correct answer.
INSERT INTO results (molecule, experimentalsystem, measuredproperty, result) VALUES
  ('NC(=O)CC(NC(=O)Cc1cccc2ccccc12)c1ccc(NCCc2ccccc2F)c([N+](=O)[O-])c1 (stereo not given)', 'SUMO-activating enzyme (Homo sapiens, UniProt Q9UBT2)', 'IC50', '39 µM (active)'),
  ('O=C1NC(=O)C(=Cc2ccc(-c3cc(Cl)ccc3Cl)[nH]2)C(=O)N1', 'SUMO-activating enzyme (Homo sapiens, UniProt Q9UBT2)', 'IC50', '11.6 µM (active)'),
  ('NC(=S)n1nc(-c2ccc([N+](=O)[O-])cc2)c(/N=N/c2cccc(Cl)c2)c1O', 'SUMO-activating enzyme (Homo sapiens, UniProt Q9UBT2)', 'IC50', '3.29 µM (active)');

GET /values?readout=IC50&item= `Cc1cccc(NC(=O)/C(C#N)=C/c2cn(CC(=O)NCc3ccco3)c3ccccc23)c1C` 36.2 µM (active)

GET /values?readout=IC50&item= `COc1cc(NC(=O)c2cncc(-c3ccc(C#N)cc3)c2)cc(C(=O)Nc2cccc(C(F)(F)F)c2)c1` 53.5 µM (active)
